read-out: Interleukin-1 alpha (IL1a), IL1A (gene 3552); test: BSK_BE3C_IL1a: BioMAP Diversity Plus: BE3C Assay for Interleukin-1 alpha (IL1a) Biomarker Activity (AID 2283016); details: primary human bronchial epithelial cells; actives raise or lower the signal
The source made the active and inactive calls. The calls were made as follows: active = hit-call score of the fitted dose curve at least 0.9, where 1 is the maximum; inactive = score below 0.9.
Outcome field: choose from T (active), F (inactive)

Solved cases below.
[[record]]
structure = "O=c1ccc2ccccc2o1"
group = "F"

[[record]]
structure = "O=C(O)c1ccccc1-n1cc(C(=O)O)c(=O)c2cc(Nc3c(F)cc(F)cc3Cl)c(Cl)cc21"
group = "F"

[[record]]
structure = "COc1cccc([C@H](O)C2CCN(CCc3ccc(F)cc3)CC2)c1OC"
group = "F"

[[record]]
structure = "CCCCOC(=O)CC(CC(=O)OCCCC)(OC(C)=O)C(=O)OCCCC"
group = "F"

[[record]]
structure = "O=C1c2ccccc2C(=O)N1CCc1noc(-c2ccc(CN3CCCCCC3)s2)n1"
group = "F"


Query: Look up the recorded call for CCCCCCCCOc1ccc(C(=O)c2ccccc2)c(O)c1 in this test.
Result: F

Query: Answer briefly: the call reported for NCc1cccc(C2CCN(C(=O)c3ccc(C#Cc4ccccc4F)o3)CC2)c1 in this assay.
Result: T

###

The entries below are paired with their reported AC50.
read-out: Broad substrate specificity ATP-binding cassette transporter ABCG2 (Homo sapiens); assay: LTEA_HepaRG_ABCG2: Life Technologies and Expression Analysis (LTEA) Assay for ABC Transporter (ABCG2) using HepaRG (AID 2283465); conditions: mRNA level, 48 h; actives raise or lower the signal
The source made the active and inactive calls. Rule for the calls: active = hit-call score of the fitted dose curve at least 0.9, where 1 is the maximum; inactive = score below 0.9.

Reported AC50 of Cc1ccc2oc(CN(Cc3ccccc3)C(=O)Nc3c(F)cc(F)cc3F)c(-c3ccc(Cl)cc3)c2c1 : 17.6 µM (active)

The molecule identified as CC(=O)N1CCN(c2ccc(OC[C@H]3CO[C@](Cn4ccnc4)(c4ccc(Cl)cc4Cl)O3)cc2)CC1 registered its AC50 at 4.05 µM (active)

###

experiment: ATG_CMV_CIS: Attagene CIS-FACTORIAL HepG2 Assay for human CMV (Internal Marker) (AID 2282928); conditions: HepG2 CMV promoter reporter, transcription factor profiling; actives raise or lower the signal;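 also: endpoint acts as a background internal control marker rather than a target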
Active and inactive are the calls of the source. The calls were made as follows: active = hit-call score of the fitted dose curve at least 0.9, where 1 is the maximum; inactive = score below 0.9.
Your answer must be one of the following: active, inactive

Known results for compounds:
[[record]]
compound = "CCCOC(=O)c1cc(O)c(O)c(O)c1"
group = "active"

[[record]]
compound = "CN(C)c1ccc(C(=C2C=CC(=[N+](C)C)C=C2)c2ccc(N(C)C)cc2)cc1"
group = "inactive"

[[record]]
compound = "O=C(OCCCCCCOC(=O)c1ccccc1)c1ccccc1"
group = "inactive"


Query: Write down the call the test reported for this compound. Item: CN(C)C(=O)C1(N2CCCCC2)CCN(CC[C@@]2(c3ccc(Cl)c(Cl)c3)CN(C(=O)c3ccccc3)CCO2)CC1
Result: inactive

Query: Kindly provide the recorded test outcome for the following compound: CC[C@@H]1C[C@H](N(Cc2cc(C(F)(F)F)cc(C(F)(F)F)c2)C(C)=O)c2cc(C(F)(F)F)ccc2N1C(=O)OC(C)C
Result: inactive

Query: Hello, I am checking results. What call was entered for Cc1c2ccccc2c(C)c2c1ccc1ccccc12 ?
Result: active

Query: Answer briefly: the call reported for CC(=O)N1CCN(c2ccc(OC[C@H]3CO[C@](Cn4ccnc4)(c4ccc(Cl)cc4Cl)O3)cc2)CC1 in this assay.
Result: active

Query: Outcome? O=c1ccc2ccccc2o1
Result: inactive

Query: Write down the call the test reported for this compound. Item: NC(=O)c1nc(-c2cccc(-c3cc(F)ccc3OCC(F)(F)C(F)(F)F)c2)n[nH]1
Result: active

###

experiment: CCTE_Padilla_ZF_144hpf_TERATOSCORE: (Legacy) CCTE's 144 Hour Post-fertilization zebrafish Assay Teratoscore, Padilla Lab (AID 2283679)
Activity calls are given as the source filed them. The calls were made as follows: active = hit-call score of the fitted dose curve at least 0.9, where 1 is the maximum; inactive = score below 0.9.
Mark one answer only. Choices: 1.0 = active, 0.0 = inactive

Take a look at these entries with their results.
[[record]]
structure = "CCCCCCCCCCCO"
group = 1.0

[[record]]
structure = "O=c1ccc2ccccc2o1"
group = 0.0

[[record]]
structure = "NC(=O)c1nc(-c2cccc(-c3cc(F)ccc3OCC(F)(F)C(F)(F)F)c2)n[nH]1"
group = 1.0

[[record]]
structure = "COc1ccc2cc(S(=O)(=O)N[C@H](CC(=O)N[C@H](Cc3ccc(CN4[C@H](C)CCC[C@@H]4C)cc3)C(=O)N(C)C(C)C)c3ccc4c(c3)OCO4)ccc2c1"
group = 1.0


Now let's try a different one.
Query: What did the test return for CC1=CC(=O)/C(=C(/C)O)C(=O)O1 ?
Result: 0.0

###

read-out: Forkhead box O3 (FOXO3), FOXO3 (gene 2309); assay: LTEA_HepaRG_FOXO3: Life Technologies and Expression Analysis (LTEA) Assay for Forkhead box O3 (FOXO3) using HepaRG (AID 2283459); conditions: mRNA level, 48 h; actives raise or lower the signal
Activity calls are given as the source filed them. How the source made its calls: active means hit-call score of the fitted dose curve at least 0.9, where 1 is the maximum; inactive means score below 0.9.
Field 'call' accepts 1 (yes) (active), 0 (no) (inactive)

Completed entries (count: 2):
[[record]]
compound = "CN(C)C(=O)C1(N2CCCCC2)CCN(CC[C@@]2(c3ccc(Cl)c(Cl)c3)CN(C(=O)c3ccccc3)CCO2)CC1"
group = "0 (no)"

[[record]]
compound = "OC12N=C(c3ccccc3)SC1Cc1cc(Cl)ccc12 (stereo unspecified)"
group = "1 (yes)"


Query: What did the test return for COCC(C)OCC(C)OCC(C)O (stereo unspecified) ?
Result: 0 (no)

###

read-out: Monocyte Chemoattractant Protein-1 (MCP1), CCL2 (gene 6347); experiment: BSK_3C_MCP1: BioMAP Diversity Plus: 3C Assay for Monocyte Chemoattractant Protein-1 (MCP1) Biomarker Activity (AID 2283017); conditions: primary human endothelial cells (HUVEC); actives raise or lower the signal
The source made the active and inactive calls. How the source made its calls: active means hit-call score of the fitted dose curve at least 0.9, where 1 is the maximum; inactive means score below 0.9.
Entry note: the call must match one of active, inactive

[[record]]
structure = "c1ccc2ccccc2c1"
group = "inactive"

[[record]]
structure = "O=C(O)c1ccccc1-n1cc(C(=O)O)c(=O)c2cc(Nc3c(F)cc(F)cc3Cl)c(Cl)cc21"
group = "inactive"

[[record]]
structure = "CN(C)C(=O)C1(N2CCCCC2)CCN(CC[C@@]2(c3ccc(Cl)c(Cl)c3)CN(C(=O)c3ccccc3)CCO2)CC1"
group = "active"

[[record]]
structure = "CC/C(=C(/CC)c1ccc(O)cc1)c1ccc(O)cc1"
group = "active"

[[record]]
structure = "CCN(Cc1cccc(S(=O)(=O)O)c1)c1ccc(C(=C2C=CC(=[N+](CC)Cc3cccc(S(=O)(=O)O)c3)C=C2)c2ccccc2S(=O)(=O)[O-])cc1"
group = "inactive"


Query: Test call for this compound, please: O=C1CCC(C2CCCCC2)CC1
Result: inactive

###

experiment: Tanguay_ZF_120hpf_JAW_legacy: (Legacy) Oregon State University Tanguay Lab 120 Hour Post-fertilization zebrafish Assay for Jaw Malformation (AID 2283638)
Results filed as inconclusive are left out. Activity calls are given as the source filed them. How the source made its calls: active means hit-call score of the fitted dose curve at least 0.9, where 1 is the maximum; inconclusive means response in the unintended direction; inactive means score below 0.9.
Result category, one only: 1 = active, -1 = inactive

[[record]]
compound = "CN1C(=O)CC[C@H]1c1cccnc1"
group = -1

[[record]]
compound = "Cc1cccc2ccccc12"
group = -1

[[record]]
compound = "CN1C(=O)N(c2ccccc2Br)Cc2cnc(Nc3ccc4c(c3)OCC(CO)O4)nc21 (stereo not drawn)"
group = 1

[[record]]
compound = "Cc1cc(F)ccc1-c1cc(N2CC[C@@H](O)[C@H]2CO)ncc1N(C)C(=O)C(C)(C)c1cc(C(F)(F)F)cc(C(F)(F)F)c1"
group = -1

[[record]]
compound = "CC/C(=C(/CC)c1ccc(O)cc1)c1ccc(O)cc1"
group = -1


Query: What was the test verdict on CN(C)C(=O)C1(N2CCCCC2)CCN(CC[C@@]2(c3ccc(Cl)c(Cl)c3)CN(C(=O)c3ccccc3)CCO2)CC1 ?
Result: -1

Query: recorded result category for CC(C)(C)c1cc(/C=C2\SC(N)=NC2=O)cc(C(C)(C)C)c1O in this test
Result: -1

Query: What is the recorded call for this compound in the test? COc1cc(C(=O)NC2CCN(C)CC2)ccc1Nc1ncc2c(n1)N(C1CCCC1)CC(F)(F)C(=O)N2C
Result: 1

###

read-out: Paternally Expressed 10 (PEG10), PEG10 (gene 23089); assay: LTEA_HepaRG_PEG10: Life Technologies and Expression Analysis (LTEA) Assay for Paternally Expressed 10 (PEG10) using HepaRG (AID 2283520); conditions: mRNA level, 48 h; actives raise or lower the signal
Calls of active or inactive are those of the source. Rule for the calls: active = hit-call score of the fitted dose curve at least 0.9, where 1 is the maximum; inactive = score below 0.9.
Give one outcome, nothing more. List: active, inactive

Example entries and their recorded answers appear below.
[[record]]
compound = "O=C=NCCCCCCN=C=O"
group = "inactive"

[[record]]
compound = "CN1C(=O)N(c2ccccc2Br)Cc2cnc(Nc3ccc4c(c3)OCC(CO)O4)nc21 (stereo not given)"
group = "inactive"

[[record]]
compound = "CC(C)(C)c1csc(-c2cc3cc(OCc4ccccc4CC(=O)O)ccc3o2)n1"
group = "active"


Query: Which outcome was assigned to Oc1ccc2ccccc2c1 in this test?
Result: inactive

Query: Fill in: this test's call for CCCCCCCCOc1ccc(C(=O)c2ccccc2)c(O)c1 is ___
Result: inactive

Query: I would be grateful if you could indicate the recorded call for CCCC(=O)OCCC(C)C .
Result: inactive

Query: Assay result, entry Cc1ccc2oc(CN(Cc3ccccc3)C(=O)Nc3c(F)cc(F)cc3F)c(-c3ccc(Cl)cc3)c2c1 — outcome?
Result: inactive

Query: Hi, sorry to bother you, what did the test record for Cc1cccc2ccccc12 ?
Result: inactive

Query: Dear all, I need the recorded test outcome for O=c1[nH]sc2ccccc12 , thank you.
Result: inactive

Query: So what was the verdict on CC[C@@H]1C[C@H](N(Cc2cc(C(F)(F)F)cc(C(F)(F)F)c2)C(C)=O)c2cc(C(F)(F)F)ccc2N1C(=O)OC(C)C in this test?
Result: active

Query: What was the test verdict on O=c1c(-c2ccc(O)cc2)coc2cc(O)cc(O)c12 ?
Result: inactive
